Provenance of the data: the NIST ThermoML archive (doi:10.1016/j.fluid.2012.08.002)

details: 313.15 K; 101.33 kPa; Liquid; Sing-around technique in a fixed-path interferometer
The following molecules are listed with their measured speed of sound values.
assay-readout: speed of sound (m/s)

molecule | recorded-result
COCCO | 1290
CCCCCCn1cc[n+](C)c1.F[B-](F)(F)F [1-hexyl-3-methylimidazolium tetrafluoroborate] | 1485
CCCCCCn1cc[n+](C)c1.[Br-] [3-hexyl-1-methyl-1H-imidazolium bromide] | 1533.5
CCCCCCn1cc[n+](C)c1.F[P-](F)(F)(F)(F)F [1-hexyl-3-methylimidazolium hexafluorophosphate] | 1383

----------
The following compounds are listed with their measured mass density values.
settings: 308.15 K; 101.33 kPa; Liquid; Vibrating tube method
assay-readout: mass density (kg/m3)

compound | recorded-result
COCCO | 950.971
CCCCCCn1cc[n+](C)c1.F[P-](F)(F)(F)(F)F [1-hexyl-3-methylimidazolium hexafluorophosphate] | 1286.64
CCCCCCn1cc[n+](C)c1.F[B-](F)(F)F [1-hexyl-3-methylimidazolium tetrafluoroborate] | 1141.23
CCCCCCn1cc[n+](C)c1.[Br-] [3-hexyl-1-methyl-1H-imidazolium bromide] | 1216.79

----------
settings: 298.15 K; 101.33 kPa; Liquid; Sing-around technique in a fixed-path interferometer

compound | speed of sound [m/s]
CCCCCCn1cc[n+](C)c1.[Br-] [3-hexyl-1-methyl-1H-imidazolium bromide] | 1587.5
CCCCCCn1cc[n+](C)c1.F[B-](F)(F)F [1-hexyl-3-methylimidazolium tetrafluoroborate] | 1521.9
CCCCCCn1cc[n+](C)c1.F[P-](F)(F)(F)(F)F [1-hexyl-3-methylimidazolium hexafluorophosphate] | 1420.3
COCCO [2-methoxyethan-1-ol] | 1341.7

----------
The following compounds are listed with their measured mass density values.
details: 298.15 K; 101.33 kPa; Liquid; Vibrating tube method
assay-readout: mass density (kg/m3)

compound | value-unit | recorded-result
CCCCCCn1cc[n+](C)c1.[Br-] [3-hexyl-1-methyl-1H-imidazolium bromide] | kg/m3 | 1223.82
CCCCCCn1cc[n+](C)c1.F[B-](F)(F)F [1-hexyl-3-methylimidazolium tetrafluoroborate] | kg/m3 | 1148.26
COCCO [2-methoxyethan-1-ol] | kg/m3 | 960.222
CCCCCCn1cc[n+](C)c1.F[P-](F)(F)(F)(F)F [1-hexyl-3-methylimidazolium hexafluorophosphate] | kg/m3 | 1294.69

----------
settings: 318.15 K; 101.33 kPa; Liquid; Sing-around technique in a fixed-path interferometer

molecule | speed of sound [m/s]
CCCCCCn1cc[n+](C)c1.[Br-] [3-hexyl-1-methyl-1H-imidazolium bromide] | 1517.8
CCCCCCn1cc[n+](C)c1.F[B-](F)(F)F [1-hexyl-3-methylimidazolium tetrafluoroborate] | 1473.3
COCCO | 1272.8
CCCCCCn1cc[n+](C)c1.F[P-](F)(F)(F)(F)F [1-hexyl-3-methylimidazolium hexafluorophosphate] | 1371.5

----------
The following compounds are listed with their measured mass density values.
details: 313.15 K; 101.33 kPa; Liquid; Vibrating tube method

compound | mass density, kg/m3
CCCCCCn1cc[n+](C)c1.F[P-](F)(F)(F)(F)F [1-hexyl-3-methylimidazolium hexafluorophosphate] | 1282.63
CCCCCCn1cc[n+](C)c1.[Br-] [3-hexyl-1-methyl-1H-imidazolium bromide] | 1213.28
CCCCCCn1cc[n+](C)c1.F[B-](F)(F)F [1-hexyl-3-methylimidazolium tetrafluoroborate] | 1137.83
COCCO | 946.306
